These measurements were taken from ChEMBL document CHEMBL1955809.

methodSummary: Clearance in dog at 1 mg/kg, iv and 4 mg/kg, po
Format: ADME, organism-based, Canis lupus familiaris
conditionDetails: in vivo
measuredAttribute: clearance (mL/min/kg)

>>> valuemeasured("C=C[C@@H]1C[C@]1(NC(=O)[C@@H]1C[C@@H](Oc2cc(-c3csc(NC(C)C)n3)nc3cc(OC)ccc23)CN1C(=O)[C@@H](NC(=O)OC1CCCC1)C(C)(C)C)P(=O)(O)Cc1c(F)cccc1F")
6.17

* * *

methodSummary: Half life in dog at 1 mg/kg, iv
Format: ADME, organism-based, Canis lupus familiaris
Parameters: dose 1 mg/kg, route intravenous
conditionDetails: in vivo
measuredAttribute: half-life

>>> valuemeasured("C=C[C@@H]1C[C@]1(NC(=O)[C@@H]1C[C@@H](Oc2cc(-c3csc(NC(C)C)n3)nc3cc(OC)ccc23)CN1C(=O)[C@@H](NC(=O)OC1CCCC1)C(C)(C)C)P(=O)(O)Cc1c(F)cccc1F")
"1.6 h"
